- Test system: PPARg:RXRa IVT, anti-PPARg (NR concentration 270 nM, RXRa partner concentration 90 nM)
- ASSAY EXPLANATION: PBM binding z-score (relative to random genomic background probes); higher = stronger binding; sequences stand for … in GC…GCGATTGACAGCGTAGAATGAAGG
RECORDED ENDPOINT: PBM binding z-score

> print(dat)
                        input.sequence  recorded.result
 1  ATCGAAAGGTCGACGAGGGGAGTATACACCGTTT             1.64
 2  CCGTCTGGGGCAAAGGTTACCATACTCAGTACGA             5.43
 3  CCTTACGGGTCACTCCAGGTTATAACATCGGAGT             3.72
 4  GCTGCTAGGTCAACTCATGGTCAGCTAAAGCTCG             4.36
 5  CGAACTAGGTCATTCACAGGACAGTGAATAGTAA             8.21
 6  ATATCTAGGTTATCGGGTCATTCAGTTTGCGCAT              7.5
 7  ATCTCTAGGTAAAGTTAAGTGAAAGATCGATAGA             1.99
 8  CCTGCTAGGTCAATGGTAAGCTAAAGCAGCTCGC             3.43
 9  CGAACTAGGTCAGACCAGGACAGTGAAGGATGAT             7.63
10  GCGACTGGGGCAAAGCAGGTGACCATAAGGTTGG             3.65
11  TCTAGCTGGCCAGAGGGTCACTCAAGAGGTACGG           -0.216
12  AATACAGGGTCACTAGGCCAGTGTAGGTACGAAT             5.58

====

- Test system: FXR:RXRa (NR concentration 270 nM, RXRa partner concentration 90 nM)
- ASSAY EXPLANATION: PBM binding z-score (relative to random genomic background probes); higher = stronger binding; sequences stand for … in GC…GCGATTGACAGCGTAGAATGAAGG
RECORDED ENDPOINT: PBM binding z-score

> print(dat)
                        input.sequence    recorded.endpoint  recorded.result
 1  TCTCGGAGGACACGAAGGTCAGATCTTTCCAGAG  PBM binding z-score             1.76
 2  TCTTGTAGATCAACAGGAGGTTATGAAAGATCGA  PBM binding z-score            0.335
 3  AATATTAGTTGACTTAGGGCAACCGATACGACGC  PBM binding z-score            0.123
 4  ATCTCTAGGTAACAAGTTCAGAGAAAGAGAGGAC  PBM binding z-score            0.853
 5  CAAACTAGGTCAAAGTCAAAGTCGGTTTGTGCCA  PBM binding z-score             4.66
 6  GCGACTGGGGCATCAGCAGGTTACCGTAACTTAA  PBM binding z-score           -0.346
 7  CCTTACGGTTCACGAGGTTATAGCACGACGAGCG  PBM binding z-score             3.45
 8  ACTATTAGTTAACTTAGGGCAACCGATACGACGC  PBM binding z-score           0.0468
 9  GCTATCAGTTGAAAGGGCAACCGAATGATTCTCG  PBM binding z-score           0.0237
10  TCTCGTAGATCAACAGGAGGTTAAGAAAGATCGA  PBM binding z-score            0.345
11  CCGACTGGGGCAAAGGTTACCAGACTCAGTACGA  PBM binding z-score             1.56
12  TGAATGAGGTTAAAGATCAGAGAACGTGGCGTCG  PBM binding z-score              3.2
13  CCTAGCAGGACAGGGTCACTCAAGCATTTCGCTT  PBM binding z-score             2.28
14  ACTAGTTGGCCAGCTGAGGTCACACACAATTCGG  PBM binding z-score             2.99
15  CCTAGCAGCCCAGGGTCACTCAAGCATTTCGCTT  PBM binding z-score             2.06
16  TTTAGCAGGCCAGAGGGTCACTCAAGAGGTACGG  PBM binding z-score             0.67
17  GCTATTTGGTCAGTAAAAGGTCACACACCGGTCG  PBM binding z-score              3.6
18  GCGACTGGGGCAAAGCAGGTTACCAAAAGGTTGG  PBM binding z-score            0.475
19  GATACAGGGTCAGCTAGAGGCCAGAGTCTGGAAA  PBM binding z-score             4.63
20  TCGAGTAGGTTACCAATGGAGCATTCAGCTTTCT  PBM binding z-score           -0.291
21  TCATATAAGTAAATGCTAGGTGAAAGTCCGATCT  PBM binding z-score             1.12
22  CCTTACGGGTCAACGTTATAGCACGGGTGGTACG  PBM binding z-score             4.79
23  GCTGCTAGATCAGGTTGGTCAGCTAACGGGTACG  PBM binding z-score           -0.615
24  CGAACGAGGGCATGATTTGATAGCAAATGCCGAT  PBM binding z-score            0.047
25  CCTACTGGCCCAAAAAGGTCATTGATGCCGATAA  PBM binding z-score             3.63
26  TCTTATAGGTAAACAGGTGAAAGTCCGTAAGTTA  PBM binding z-score              1.1

====

- Test system: LXRb homodimer (NR concentration 270 nM)
- ASSAY EXPLANATION: PBM binding z-score (relative to random genomic background probes); higher = stronger binding; sequences stand for … in GC…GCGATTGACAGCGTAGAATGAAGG
Each entry below carries its recorded PBM binding z-score.
RECORDED ENDPOINT: PBM binding z-score

> print(dat)
                        input.sequence                           measured.target  recorded.result
 1  CCTACTGGCCCAAGGTCATTGATCAGTCAAAGCA  LXRb homodimer (NR concentration 270 nM)            0.491
 2  TCATATAGGGAAATGCTAGGTGAAAGTCCGATCT  LXRb homodimer (NR concentration 270 nM)          -0.0156
 3  AGTAGCAGGCCAAGTTTGGGTCACTCAAACAAAG  LXRb homodimer (NR concentration 270 nM)           -0.802
 4  CCTAGCAGGCCAATCTGGGTCACTCATGGCTTGA  LXRb homodimer (NR concentration 270 nM)            -1.09
 5  AGAATGAGGTTATCAAAGATCAGGGAAACGCTTG  LXRb homodimer (NR concentration 270 nM)           -0.277
 6  CGTCAAAGTTCAAGGTAACCTAACAGAAAGCAGC  LXRb homodimer (NR concentration 270 nM)            0.767
 7  ACTATTAGTTGAGACGAGGGAAACCGATAGGTTG  LXRb homodimer (NR concentration 270 nM)          -0.0748
 8  GCGACTAGGGCATCAGCAGGTTACCATAACTTAA  LXRb homodimer (NR concentration 270 nM)           -0.683
 9  TCATACAGGTAATACAGGTGAAAGTCGGCATCTA  LXRb homodimer (NR concentration 270 nM)            0.285
10  CGAACTTGGTCATCCAGGACAGTGAATACATTGA  LXRb homodimer (NR concentration 270 nM)           -0.606
11  CGAACTAGGTAATCCAGGACAGTGAATACATTGA  LXRb homodimer (NR concentration 270 nM)           -0.454
12  TTAACAAGGTGAGCTGAGGTCGTTGATCCAACTC  LXRb homodimer (NR concentration 270 nM)           -0.886

====

- Test system: LXRa homodimer (NR concentration 270 nM)
- ASSAY EXPLANATION: PBM binding z-score (relative to random genomic background probes); higher = stronger binding; sequences stand for … in GC…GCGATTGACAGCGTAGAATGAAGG
param class (str): category from PBM binding z-score; see ranges lower = under -0.04, middle = from -0.04 up to 0.07, upper = 0.07 and over

> print(dat)
                        input.sequence  category.label
 1  ATCTCTAGGTAAAAGTTCAGTGCATCCCGAGGAT           upper
 2  GCTAGCAGGCCATTTGGGTCATTCAATGACGGGC           lower
 3  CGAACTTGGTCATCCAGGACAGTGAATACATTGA          middle
 4  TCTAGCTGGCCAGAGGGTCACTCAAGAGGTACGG           lower
 5  AACTCTAGGTAAGACTCAGTTCAGTGAAGAACGC           upper
 6  ATCTCTAGGTAAAAGTTCCGTGAATCCCGAGGAT          middle
 7  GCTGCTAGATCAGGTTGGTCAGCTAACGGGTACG           lower
 8  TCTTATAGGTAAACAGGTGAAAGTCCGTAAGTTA          middle
 9  CCTATTAGTTGACTATAAGGGCAACCGAAGCTCG          middle
10  TTACCAAGGTGCGCTGAGGTCGTTGATCCAACTC          middle
11  AGTCAAAGTTCACTAGGTAACGTAAGATTCAGCT           upper
